B1: SERPINB5 (parent)
chain: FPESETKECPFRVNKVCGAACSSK

Variants of: B1
Test: protein stability index of a GFP-peptide fusion (GPS, HEK-293T) (PSI 1-6); higher = more stable;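 further: lentivirally expressed fusions sorted by FACS into six bins by GFP to DsRed ratio, PSI derived from sequencing read proportions per bin multiplied by bin number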
Details: c terminus: a fixed tail appended
In this section we review reported protein stability index values for a set of variants.

Reference set, count: 6
N14Q ... 3.29
C9P ... 4.51
E3W ... 2.29
F11R ... 4.67
S23A ... 2.41
R12E ... 4.59

Next, consider the following variant.
Quick one: protein stability index for K7S ? 2.69
